Taken from patent US20190225669A1.

- measuredOn: T1, ActRIIB-Fc homodimer (UniProt Q13705 19-137)
- T1 construct: extracellular domain; also called ActRIIB homodimer
- T1 sequence (looked up): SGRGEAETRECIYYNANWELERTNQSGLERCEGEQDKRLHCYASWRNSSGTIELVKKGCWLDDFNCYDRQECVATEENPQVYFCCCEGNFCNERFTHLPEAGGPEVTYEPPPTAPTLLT
- protocol: Biacore SPR
The binders listed here are annotated with their koff.
Express the reported value numerically, then name its unit.

{"binder": "BMP9 (ligand, UniProt Q9UK05 320-429, looked up, also called GDF2) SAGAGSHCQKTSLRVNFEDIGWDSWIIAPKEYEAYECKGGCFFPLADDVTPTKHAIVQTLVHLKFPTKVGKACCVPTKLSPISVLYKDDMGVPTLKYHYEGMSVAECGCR", "koff": "0.0013 s⁻¹"}
{"binder": "GDF3 (ligand, UniProt Q9NR23 251-364, looked up) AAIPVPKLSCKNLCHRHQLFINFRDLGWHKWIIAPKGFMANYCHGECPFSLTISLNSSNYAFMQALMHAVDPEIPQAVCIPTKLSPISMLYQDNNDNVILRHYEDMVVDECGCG", "koff": "0.0023 s⁻¹"}
{"binder": "activin B (ligand, UniProt P09529 293-407, looked up) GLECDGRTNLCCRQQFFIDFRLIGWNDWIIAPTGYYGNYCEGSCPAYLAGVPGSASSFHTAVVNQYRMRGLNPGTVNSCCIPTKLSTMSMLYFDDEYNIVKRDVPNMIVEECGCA", "koff": "0.0001 s⁻¹"}

[in] Endpoint output: koff of GDF11 (ligand, UniProt O95390 299-407, looked up, also called BMP11) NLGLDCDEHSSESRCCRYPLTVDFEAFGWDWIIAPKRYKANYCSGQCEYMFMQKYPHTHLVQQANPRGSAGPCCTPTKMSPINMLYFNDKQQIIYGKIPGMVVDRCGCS . Value?
[out] 0.00011 s⁻¹

[in] Moving on to the next binder: activin A (ligand, UniProt P08476 311-426, looked up) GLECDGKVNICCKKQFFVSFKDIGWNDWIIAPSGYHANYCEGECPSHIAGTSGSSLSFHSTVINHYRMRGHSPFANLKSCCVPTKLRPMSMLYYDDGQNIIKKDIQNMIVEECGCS
[out] 0.00014 s⁻¹

[in] Moving on to the next binder: BMP10 (ligand, UniProt O95393 317-424, looked up) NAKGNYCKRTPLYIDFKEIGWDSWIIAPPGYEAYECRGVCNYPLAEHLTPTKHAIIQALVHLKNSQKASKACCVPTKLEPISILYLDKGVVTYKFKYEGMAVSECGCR
[out] 0.0002 s⁻¹
